Reference source: ChEMBL document CHEMBL1201862

Tested on: HT-29
Assay Notes: NCI tumour cell line growth inhibition, 48 h
Active and inactive are the calls of the source. Rule as the data show it: active = GI50 up to about 1.1 µM and inactive = higher.
// classify into 1 for active, -1 for inactive

O=S(=O)(O)CCS: -1
O=c1oc2ccccc2c(Nc2ccc3c(c2)Sc2ccccc2O3)c1[N+](=O)[O-]: -1
CCOC(=O)CCC1(C(=O)OCC)CCCCC1=O (configuration not stated): -1

Q. Please let me know the test result on file for COC(=O)C1(Cc2ccc3c(c2)CCC3)Cc2ccc3c(c2C1O)CCC3 (configuration not stated) .
A. -1

Q. Record lookup: outcome of this test for CC1(C)C2CCC(O)(C2)C1N (configuration not stated) ?
A. -1

Q. What did this assay record as the result for CCC1(C(=O)OC)CCc2c(OC)ccc(OC)c2C1=O (configuration not stated) ?
A. -1

Q. For CCOC(=O)C1=C(C)N(c2ccc(C)cc2)C2=C(C(=O)N(c3ccccc3)C2c2ccccc2)C1c1ccccc1 (configuration not stated) , which call appears in the assay record?
A. -1

Q. What call does the record list for "CCOCc1nc2c(OC)c(-c3nc4ccc(N5CCN(C)CC5)cc4[nH]3)cc(OC)c2[nH]1" ?
A. -1

Q. Given "CC(C)C(=O)Cc1ccc2ccccc2n1" , state the outcome it received in this test.
A. -1

Q. // return assay outcome for "C=C1C(=O)O[C@H]2C/C(C)=C/CC[C@]3(C)CCC[C@](C)(CC[C@@H]12)O3"
A. -1

Q. Recorded test call requested for Nc1ncnc2c1ncn2C1C(O)C=C(CO)C1O (configuration not stated)
A. -1

Q. Give the logged outcome of this assay for the following compound: "O=C(O)CN1CCNCCN(CP(=O)(O)O)CC1"
A. -1

Q. // param item: O=C(O)C(C1NCCS1)N1Cc2ccccc2C1 (configuration not stated) ; yields the recorded call
A. -1

Q. What outcome does the record of this test show for N#Cc1nc(C(O)c2ccccc2)oc1N (configuration not stated) ?
A. -1

Q. Which result was noted for this compound in the test: S=C=NCCc1ccccc1 [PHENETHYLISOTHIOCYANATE]
A. 1

Q. What classification did "Cc1c(/C=C2\CC/C(=C\c3[nH]c(C(=O)OC(C)(C)C)c(C)c3C)C2=O)[nH]c(C(=O)OC(C)(C)C)c1C" end up with in this test?
A. -1

Q. Tell me the assay call for "COc1cccc(/C(CC(O)(C(F)(F)F)C(F)(F)F)=N\N(C)C)c1" please.
A. -1

Q. Would you mind telling me which call this test gave C=CCNC(=O)N(CCC)CCCC(NC(C)=O)C(=O)NCc1ccccc1 (configuration not stated) ?
A. -1

Q. Hello, I am checking results. What call was entered for "C#CCN(Cc1ccc2nc(-c3ccccc3)c(Cl)nc2c1)c1ccc(F)cc1" ?
A. -1

Q. Status in this test for "COc1cc2c(OC)c3cc(C)oc(=O)c3c(O)c2c(O)c1-c1c(OC)cc2c(OC)c3cc(C)oc(=O)c3c(O)c2c1O" ?
A. -1

Q. So what was the verdict on "CC(C)(Oc1ccc(Cl)cc1)C(=O)N(C(=O)N1CCC(c2ccccc2)CC1)c1ccccc1" in this test?
A. -1

Q. Could you kindly confirm the outcome this assay logged for "O=C1C=C(OCCCl)C(=O)c2c(O)ccc(O)c21" ?
A. 1
